Values were extracted from paper PMC10215404.

# Tested on: E. faecalis PSi/107
# procedure_details: MIC determination, broth microdilution
# Type: cell-based
# measurement_context: Enterococcus faecalis
measurement_name: MIC

Solved entries (count: 3):
CC(C)C[C@@H]1NC(=O)[C@@H](Cc2c[nH]c3ccccc23)n2c1nc1cc(F)ccc1c2=O [Compound 12b] | > 100 µM
CC(C)C[C@@H]1NC(=O)[C@H](Cc2c[nH]c3cc(F)ccc23)n2c1nc1c(Cl)cc(Cl)cc1c2=O [Compound 12c] | > 100 µM
CC(C)C[C@@H]1NC(=O)[C@@H](Cc2c[nH]c3ccccc23)n2c1nc1ccc(F)cc1c2=O [Compound 12a] | > 100 µM

From here, focus on the item given below.
According to the records, this compound CC(C)C[C@@H]1NC(=O)[C@H](Cc2c[nH]c3c(Cl)cccc23)n2c1nc1c(Cl)cc(Cl)cc1c2=O [Compound 12d] displays MIC of > 100 µM
